# test target: SLC-1 (UniProt Q99705)
# assay comment: Determination of antagonist activity using GTPγS binding assay
# Type: biochemical, human/rat
# condition: inhibition of MCH-stimulated [35S]-Guanosine 5′-(γ-thio) triphosphate binding, SLC-1 expressing CHO cell membrane fractions
# Method: Determination of Antagonist Activity Using GTPYS Binding Assay of Test Compound […] After this reaction mixture was allowed to react for 1 hour under stirring, it was filtered under vacuum using a glass filter (GF-C), then the filter was washed 3 times with 300 μl of washing solution (50 mM Tris-HCl buffer solution pH 7.5). […] of liquid scintillator was added to the glass filter, and residual radioactivity was determined using a liquid scintillation counter. […]
measurement name: IC50 (nM)
Value expressed in nM; do not type the unit.

Task: Name the reported IC50 value associated with the molecule CN(C)Cc1ccc2cc(NC(=O)c3ccc(-c4ccc(Cl)cc4)cc3)ccc2c1
Result: 5
